# TEST METHOD NOTES: LogD determinations
# Type: physicochemical
# EXPERIMENTAL PARAMETERS: 1-octanol/PBS; PBS pH 7.4/1-octanol, ion-count method
MEASUREMENT KIND: logD
Please give only the number in your answer, with no unit.

Query: logD; subject: CC(C)C[C@H](NC(=O)c1ccc(C2CCN(C3CCC3)CC2)cc1)C(=O)N1CC[C@H]2OCC(=O)[C@H]21
0.95

Quick one: CC(C)C[C@H](NC(=O)c1ccc(N2CCN(C(C)C)CC2)cc1)C(=O)N1CC[C@H]2OCC(=O)[C@H]21
1.21

* * *

# TEST METHOD NOTES: Plasma incubations
# Assay type: in vitro ADME
# EXPERIMENTAL PARAMETERS: 37° C., 25 μM
MEASUREMENT KIND: Human Plasma Stability % rem. @ 1 h (%)
I only need the number, in %, no unit after it.

Past entries and their recorded results:
> print(dat)
                                   compound  assay.value
1  CC(C)C[C@H](NC(=O)c1ccc(N2CCN(C)CC2)cc1)C(=O)N1CC[C@H]2OCC(=O)[C@H]21 [EXAMPLE 1, reference compound]           95
2  CC(C)C[C@H](NC(=O)c1ccc(C(C)(C)C)cc1)C(=O)N1CC[C@H]2OCC(=O)[C@H]21 [prior art compound 23, reference compound]           75
3  CC(C)C[C@H](NC(=O)c1ccc(C2CCN(C3CC3)CC2)cc1)C(=O)N1CC[C@H]2OCC(=O)[C@H]21 [compound 9]           93
4  COCCN1CCC(c2ccc(C(=O)N[C@@H](CC(C)C)C(=O)N3CC[C@H]4OCC(=O)[C@H]43)cc2)CC1 [EXAMPLE 8]           98

Query: Human Plasma Stability % rem. @ 1 h; subject: COCCN1CCN(c2ccc(C(=O)N[C@@H](CC(C)C)C(=O)N3CC[C@H]4OCC(=O)[C@H]43)cc2)CC1 [EXAMPLE 5]
98

Quick one: CCCN1CCN(c2ccc(C(=O)N[C@@H](CC(C)C)C(=O)N3CC[C@H]4OCC(=O)[C@H]43)cc2)CC1 [EXAMPLE 3]
89

Where do the numbers come from? From patent US7846935B2.
